system: HT29 colon; test: NCI-60 one-dose screen, 48 h (100 = growth as untreated, 0 = no growth, -100 = all killed); settings: 10 µM unless noted
About 83,000 compounds went through this panel and 20% of them were active in at least one assay; those are over-represented in the sample as a whole. Active and inactive are the calls of the source. Rule for the calls: active = growth percent below 10; inactive = the rest.
Each record here notes measured growth.
parameter_measured: growth

molecule="O=C1CSC(c2ccccc2)N1c1ccccc1 (stereo unspecified)" parameter_measured=growth readout_value="116% (inactive)"
molecule=Cc1cc(N(CCCNc2ccnc3cc(Cl)ccc23)Cc2ccccn2)nc(N2CCCC2)n1 parameter_measured=growth readout_value="44% (inactive)"
molecule=Cc1cn(C2CCCCC2)c(=O)[nH]c1=O parameter_measured=growth readout_value="96% (inactive)"
molecule=Cc1cc(-c2ccccc2)cc(SC#N)[n+]1[O-] parameter_measured=growth readout_value="50.6% (inactive)"
molecule=Cn1cc(Nc2nccc(-c3ccc(N4CCCC4)c(C#N)c3)n2)cn1 parameter_measured=growth readout_value="20.3% (inactive)"
molecule="O=C(NCOC(O)C(Cl)(Cl)Cl)NCOC(O)C(Cl)(Cl)Cl (stereo unspecified)" parameter_measured=growth readout_value="94.4% (inactive)"
molecule=O=[N+]([O-])c1cccc(/C=C/c2ccccn2)c1 parameter_measured=growth readout_value="98% (inactive)"
molecule=CN(C)c1ccc(C#Cc2c(F)cccc2Cl)cc1 parameter_measured=growth readout_value="73.7% (inactive)"
molecule="O=c1ccn(C2OC(F)(CO)C(O)C2F)c(=O)[nH]1 (stereo unspecified)" parameter_measured=growth readout_value="94.5% (inactive)"
molecule=CSc1ncc(C)c(Nc2ccc(Cl)cc2)n1 parameter_measured=growth readout_value="96.4% (inactive)"
molecule=CCCn1nc(-c2ccccc2)c2c(-c3ccccc3)onc2c1=O parameter_measured=growth readout_value="43.1% (inactive)"
molecule="CCCCNC(=O)NS(=O)(=O)c1ccc(N2N=C(c3ccc(C)cc3C)CC2c2ccc(N(C)C)cc2)cc1 (stereo unspecified)" parameter_measured=growth readout_value="62% (inactive)"
molecule=COc1ccc(OC)c(Nc2nc3nonc3nc2Nc2cc(OC)ccc2OC)c1 parameter_measured=growth readout_value="42.6% (inactive)"
molecule=C[C@H]1[C@H](C)CC[C@]2(C(=O)N3CCN(C)CC3)CC[C@]3(C)C(=CC[C@@H]4[C@@]5(C)C/C(=C/c6cccnc6)C(=O)C(C)(C)[C@@H]5CC[C@]43C)[C@H]12 parameter_measured=growth readout_value="-79.3% (active)"
molecule=CNC1(C#N)CCN(Cc2ccccc2)CC1 parameter_measured=growth readout_value="102% (inactive)"
molecule=COC(=O)c1ccc2oc(NC(=O)c3ccc(N4CCOCC4)c([N+](=O)[O-])c3)nc2c1 parameter_measured=growth readout_value="95.6% (inactive)"
molecule=CCn1c(Sc2nnc(NC(C)=O)s2)nc2c1c(=O)n(C)c(=O)n2C parameter_measured=growth readout_value="104% (inactive)"
molecule=NC(=O)c1c(NC(=O)c2ccccn2)sc2c1CCC(=O)C2 parameter_measured=growth readout_value="68% (inactive)"
molecule=CC(C)n1nc(C#Cc2cccc(NC(=O)c3cccc(C(F)(F)F)c3)c2)c2c(N)ncnc21 parameter_measured=growth readout_value="-11.7% (active)"
molecule=CN(C)c1ccc(/C=N/NC(=O)COc2cc(=O)n(C)c3ccccc23)cc1 parameter_measured=growth readout_value="108% (inactive)"
molecule=CC(C)OCCCNCC(=O)Nc1ccc(S(=O)(=O)c2ccc(NC(=O)CNCCCOC(C)C)cc2)cc1 parameter_measured=growth readout_value="27.4% (inactive)"
